Literature roundup of Endothelin-1 receptor (Homo sapiens, UniProt P25101) data, read-out pIC50.
# EXPERIMENTAL SYSTEM: Endothelin-1 receptor (Homo sapiens, UniProt P25101)
# Sequence (P25101 whole entry): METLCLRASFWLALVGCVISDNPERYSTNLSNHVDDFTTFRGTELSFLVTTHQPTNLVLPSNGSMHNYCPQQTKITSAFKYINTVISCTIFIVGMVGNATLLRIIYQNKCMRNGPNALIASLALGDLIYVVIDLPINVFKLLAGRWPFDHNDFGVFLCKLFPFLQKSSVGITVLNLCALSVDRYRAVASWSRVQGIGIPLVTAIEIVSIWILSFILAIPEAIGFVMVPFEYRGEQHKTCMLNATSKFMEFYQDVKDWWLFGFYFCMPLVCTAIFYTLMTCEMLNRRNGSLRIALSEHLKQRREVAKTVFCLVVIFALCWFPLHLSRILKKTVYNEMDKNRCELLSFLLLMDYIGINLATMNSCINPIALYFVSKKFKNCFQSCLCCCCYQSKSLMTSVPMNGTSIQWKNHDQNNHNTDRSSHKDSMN
Field pIC50 (float): negative decimal logarithm of the concentration in molar.

Consider the following illustrative entries.
COMPOUND	pIC50
CC[C@H](C)[C@@H](NC(=O)[C@@H](CC(=O)O)NC(=O)[C@H]1CCCN1C(=O)[C@@H](Cc1ccccc1)NC(C)=O)C(=O)N[C@@H](C(=O)N[C@H](Cc1c[nH]c2ccccc12)C(=O)O)[C@@H](C)CC	7.82
COc1cc2c(-c3ccc4c(c3)OCO4)c(C(=O)O)n(Cc3ccc4c(c3)OCO4)c2cc1OC	6.82
Cc1noc(NS(=O)(=O)c2ccsc2C(=O)Nc2cc3c(cc2CC#N)OCO3)c1Cl	8.42
COc1cccc(NCc2sccc2S(=O)(=O)Nc2onc(C)c2Br)c1	6.03
Cc1noc(NS(=O)(=O)c2ccsc2C(=O)Nc2ccc(C(C)(C)C)cc2)c1Br	7.33
Cn1cc(C(C(=O)NS(=O)(=O)c2ccccc2C(=O)O)c2ccc3c(c2)OCO3)c2ccc(C(N)=O)cc21 (stereo unspecified)	8.51
COc1ccc([C@H]2[C@H](C(=O)O)[C@@H](c3ccc4c(c3)OCO4)CN2CC(=O)NC(Cc2ccccc2)c2ccccc2)cc1 (stereo partly specified)	8.41
COc1ccc([C@@H]2c3nc(NC(C)C)ccc3[C@H](c3ccc4c(c3)OCO4)[C@H]2C(=O)O)c(OCC(C)C)c1	9.07

What does the record list as pIC50 for COc1ccc([C@@H]2c3nc(N(C)C(C)C)ccc3C(c3ccc4c(c3)OCO4)[C@H]2C(=O)O)cc1 (single isomer, unassigned) ?
8.49

What does the record list as pIC50 for `Cc1noc(NS(=O)(=O)c2ccsc2C(=O)Oc2ccc3c(c2)OCO3)c1C` ?
5.21

What does the record list as pIC50 for CCc1cccc(CC)c1NC(=O)CN1C[C@H](c2ccc3c(c2)OCO3)[C@@H](C(=O)O)[C@@H]1c1ccc(OC)cc1 (stereo in doubt; 36) ?
7.05

====

Literature roundup of Endothelin-1 receptor (Homo sapiens, UniProt P25101) data, read-out IC50.

MOLECULE	REPORTED VALUE
Cc1noc(NS(=O)(=O)c2ccsc2C(=O)Nc2cc3c(cc2OCCO)OCO3)c1Cl	5.1 nM

Hello, I am looking for reported IC50 with Endothelin-1 receptor (Homo sapiens, UniProt P25101) for `Cc1nnc(NC(=O)c2sccc2S(=O)(=O)Nc2onc(C)c2Cl)s1` . Could you help?
1290 nM

Hello, I am looking for reported IC50 with Endothelin-1 receptor (Homo sapiens, UniProt P25101) for `Cc1ccccc1-c1ccsc1S(=O)(=O)Nc1onc(C)c1Br` . Could you help?
306 nM

Hello, I am looking for reported IC50 with Endothelin-1 receptor (Homo sapiens, UniProt P25101) for `Cc1ccc(-c2ccsc2S(=O)(=O)Nc2onc(C)c2Br)cc1` . Could you help?
315 nM

Hello, I am looking for reported IC50 with Endothelin-1 receptor (Homo sapiens, UniProt P25101) for `Cc1[nH]c([C@@H](Cc2cn(C)c3ccccc23)NC(=O)[C@H](CC(C)C)NC(=O)OC2CCCCC2)nc1C(=O)O` . Could you help?
76 nM

Hello, I am looking for reported IC50 with Endothelin-1 receptor (Homo sapiens, UniProt P25101) for CCCOc1ccc2c(n1)[C@@H](c1ccc(OC)cc1)[C@H](C(=O)O)C2c1ccc2c(c1)OCO2 (single isomer, unassigned) . Could you help?
0.92 nM

====

Protein target, amino acids: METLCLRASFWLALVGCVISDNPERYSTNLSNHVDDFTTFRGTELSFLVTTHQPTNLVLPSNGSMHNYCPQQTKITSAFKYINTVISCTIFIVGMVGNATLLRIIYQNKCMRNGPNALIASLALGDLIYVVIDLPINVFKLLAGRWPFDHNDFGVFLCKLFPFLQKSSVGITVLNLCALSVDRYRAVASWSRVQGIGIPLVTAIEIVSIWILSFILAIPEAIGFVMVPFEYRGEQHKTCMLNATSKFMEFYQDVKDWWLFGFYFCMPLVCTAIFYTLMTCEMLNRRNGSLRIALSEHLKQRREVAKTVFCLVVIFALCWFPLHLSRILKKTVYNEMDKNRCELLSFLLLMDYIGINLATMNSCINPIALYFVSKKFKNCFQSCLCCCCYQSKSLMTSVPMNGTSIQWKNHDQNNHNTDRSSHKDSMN
Literature roundup of the protein given by its sequence data, read-out IC50.
Numeric only. Scale: nM

Consider the following illustrative entries.
COMPOUND	READOUT NAME	REPORTED VALUE
CCCOc1ccc2c(c1)c(-c1ccc3c(c1)OCO3)c(C(=O)O)n2Cc1ccc2nonc2c1	IC50	2500
CCc1ccccc1C(NC(=O)CN1C[C@H](c2ccc3c(c2)OCO3)[C@@H](C(=O)O)[C@@H]1c1ccc(OC)cc1)c1ccccc1CC	IC50	100
Cc1ccc(OC(=O)c2sccc2S(=O)(=O)Nc2onc(C)c2Br)cc1	IC50	9.3

What does the record list as IC50 for `Cc1ccc(NC(=O)c2sccc2S(=O)(=O)Nc2onc(C)c2Cl)cc1` ?
15

What does the record list as IC50 for `Cc1oc([C@@H](Cc2cn(C)c3ccccc23)NC(=O)[C@H](CC(C)C)OC(=O)N(C)C2CCCCC2)nc1C(=O)O` ?
4.6

====

Literature roundup of Endothelin-1 receptor (Homo sapiens, UniProt P25101) data, read-out pIC50.
pIC50: −log10 of the molar value.
Give yes when the value for pIC50 is at least 7. Give no when it is less.

MOLECULE	QUALITATIVE LABEL
CCCc1cccc(CCC)c1NC(=O)CN1C[C@H](c2ccc3c(c2)OCO3)[C@@H](C(=O)O)[C@@H]1c1ccc(OC)cc1	yes
COc1cc(C#N)c(NC(=O)c2sccc2S(=O)(=O)Nc2onc(C)c2Cl)cc1OC	yes
COC(=O)c1sccc1S(=O)(=O)Nc1onc(C)c1Cl	no
CCc1cc(C(=O)O)cc(CC)c1NC(=O)CN1C[C@H](c2ccc3c(c2)OCO3)[C@@H](C(=O)O)[C@@H]1c1ccc(OC)cc1	no
COc1ccc([C@@H]2c3nc(NC(C)C)ccc3[C@H](c3ccc4c(c3)OCO4)[C@H]2C(=O)O)c(CC(C)C(=O)N(C)C)c1 (stereo in doubt)	yes
Cc1noc(NS(=O)(=O)c2ccsc2C(=O)NCc2ccccc2)c1Br	no
Cc1oc([C@@H](Cc2cn(C)c3ccccc23)NC(=O)[C@H](CC(C)C)NC(=O)OC2CCCCC2)nc1C(=O)O	yes
Cc1cc(C)c(NC(=O)c2sccc2S(=O)(=O)Nc2onc(C)c2C)c(C#N)c1C	yes
Cc1noc(NS(=O)(=O)c2ccsc2C(=O)Oc2ccc3c(c2)OCO3)c1Br	yes
COc1ccc([C@H]2[C@H](C(=O)O)[C@@H](c3ccc4c(c3)OCO4)CN2CC(=O)NC(C)c2ccccc2)cc1 (some centres undefined)	yes

Determine whether measured pIC50 meets or exceeds 7 for `Cc1noc(NS(=O)(=O)c2ccsc2C(=O)Nc2cc3c(cc2CC(=O)N(C)C)OCO3)c1Cl`
yes

Determine whether measured pIC50 meets or exceeds 7 for `Cc1[nH]c([C@@H](Cc2cn(C)c3ccccc23)NC(=O)[C@H](CC(C)C)N(C)C(=O)NC2CCCCC2)nc1C(=O)O`
yes

Determine whether measured pIC50 meets or exceeds 7 for `Cc1noc(NS(=O)(=O)c2sccc2Cc2ccccc2)c1Br`
no

Determine whether measured pIC50 meets or exceeds 7 for `COc1ccc(-c2ccsc2S(=O)(=O)Nc2onc(C)c2Br)cc1`
no

====

Literature roundup of the protein given by its sequence data, read-out pIC50.
Target protein (sequence): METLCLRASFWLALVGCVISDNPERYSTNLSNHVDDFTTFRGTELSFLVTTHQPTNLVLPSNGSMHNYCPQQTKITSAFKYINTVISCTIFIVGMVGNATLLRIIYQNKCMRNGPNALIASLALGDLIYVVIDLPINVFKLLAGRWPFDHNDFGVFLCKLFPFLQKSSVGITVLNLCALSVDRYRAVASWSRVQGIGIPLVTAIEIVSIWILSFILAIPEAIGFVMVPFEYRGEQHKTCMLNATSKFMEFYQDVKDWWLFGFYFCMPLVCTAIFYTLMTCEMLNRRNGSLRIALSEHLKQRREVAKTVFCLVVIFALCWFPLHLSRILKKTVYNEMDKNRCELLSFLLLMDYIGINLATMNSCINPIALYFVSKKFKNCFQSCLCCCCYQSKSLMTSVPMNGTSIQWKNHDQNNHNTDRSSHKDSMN
Field pIC50 (float): negative decimal logarithm of the concentration in molar.

Consider the following illustrative entries.
MOLECULE	EXPERIMENTAL SYSTEM	pIC50
Cn1cc(C(C(=O)NS(=O)(=O)c2ccc(C(F)(F)F)cc2)c2ccc3c(c2)OCO3)c2ccc(C(N)=O)cc21 (stereo not drawn)	the protein given by its sequence	8.19
Cc1noc(NS(=O)(=O)c2ccsc2C(=O)Cc2ccc3c(c2)OCO3)c1Br	the protein given by its sequence	7.85
Cc1ccc(C)c(CC(=O)c2sccc2S(=O)(=O)Nc2onc(C)c2Cl)c1	the protein given by its sequence	8.14
Cn1cc(C(C(=O)NS(=O)(=O)c2ccccc2)c2ccc3c(c2)OCO3)c2ccc(C(N)=O)cc21 (stereo not drawn)	the protein given by its sequence	7.92
COc1ccc([C@H]2[C@H](C(=O)O)[C@@H](c3ccc4c(c3)OCO4)CN2CC(=O)Nc2cccc(C)c2C)cc1	the protein given by its sequence	7.80

Hello, I am looking for reported pIC50 with the protein given by its sequence for `Cc1noc(NS(=O)(=O)c2ccsc2C(=O)Oc2ccc3c(c2)OCO3)c1Cl` . Could you help?
8.08

Hello, I am looking for reported pIC50 with the protein given by its sequence for `Cc1oc([C@@H](Cc2cn(C)c3ccccc23)NC(=O)[C@H](CC(C)C)OC(=O)OC2CCCCC2)nc1C(=O)O` . Could you help?
7.77

Hello, I am looking for reported pIC50 with the protein given by its sequence for `CC(=O)OCCOc1cc2c(cc1NC(=O)c1sccc1S(=O)(=O)Nc1onc(C)c1Cl)OCO2` . Could you help?
8.21
